Kindly supply the reported inhibition values for the records listed here.
molecular target: Tubulin (Homo sapiens) (UniProt P68371+Q9H4B7+P0DPH7+P68366+Q13509+Q71U36+P04350+Q3ZCM7+P07437+P68363+Q9BQE3+Q6PEY2+Q13885+Q9BVA1+Q9BUF5); assay: Inhibition of [3H]colchicine binding to tubulin (unknown origin) at 5 uM measured after 10 mins by beckman scintillation counting method relative to control; format: protein-complex assay
Answers are plain numbers, in %.

COc1cc(C2=CC=CCc3c2ccc(OC)c3OP(=O)([O-])[O-])cc(OC)c1OC.[Na+].[Na+]; 45

Quick request: inhibition for each listed item, please.
1. COc1cc(C2(O)C=CCCc3c2ccc(OC)c3OC)cc(OC)c1OC (stereo not given)
2. COc1ccc2c(c1O)CCCC(=O)C2(O)c1cc(OC)c(OC)c(OC)c1 (stereo not given)
3. COc1ccc2c(c1CO)CCCC=C2c1cc(OC)c(OC)c(OC)c1
4. COc1ccc2c(c1O)CCCC=C2c1cc(OC)c(OC)c(OC)c1
5. COc1ccc2c(c1O)CCCC(O)C2(O)c1cc(OC)c(OC)c(OC)c1 (stereo not given)
6. COc1cc(C2CCc3c(ccc(OC)c3OC)C(=O)C2)cc(OC)c1OC (stereo not given)

1: 0; 2: 72; 3: 76; 4: 95; 5: 0; 6: 0

Go through the list and state inhibition for each entry.
1. CCOC(=O)c1c(OC)ccc2c1CCCC=C2c1cc(OC)c(OC)c(OC)c1
2. COc1ccc2c(c1O)CCCC(Br)=C2c1cc(OC)c(OC)c(OC)c1
3. COc1ccc2c(c1C#N)CCC=C2c1cc(OC)c(OC)c(OC)c1
4. COc1ccc2c(c1O)CC=CC=C2c1cc(OC)c(OC)c(OC)c1

47
88
73
95

Could you report inhibition for every entry in the following list?
1. COc1cc(C2=CC(O)CCc3c2ccc(OC)c3OC)cc(OC)c1OC (stereo not given)
2. COc1ccc2c(c1C=O)CCCC=C2c1cc(OC)c(OC)c(OC)c1
3. COc1ccc2c(c1O)CCC(NC(C)=O)C=C2c1cc(OC)c(OC)c(OC)c1 (stereo not given)
4. COc1ccc2c(c1C#N)CCCC=C2c1cc(OC)c(OC)c(OC)c1

28
61
0.4
62
